All values here come from paper PMC9610990.

Record set of Ki for target or system β-Glucuronidase from E. coli (Escherichia coli, UniProt P05804).
The response must be a number in µM with no trailing unit.

| Test Smiles | Ki, µM |
| --- | --- |
| CCCC(=O)c1c(O)cc(O)c(Cc2c(O)cc(O)c(C(=O)CC)c2O)c1O | 6.3 |
| CCCC(=O)c1c(O)c(C)c(O)c(Cc2c(O)c(CC3=C(O)C(C)(C)C(O)=C(C(C)=O)C3=O)c(O)c(C(=O)CCC)c2O)c1O | 0.5 |
| CCCC(=O)c1c(O)cc(O)c(Cc2c(O)c(CC3=C(O)C(C)(C)C(O)=C(C(C)=O)C3=O)c(O)c(C(=O)CCC)c2O)c1O | 7.5 |
| CCCC(=O)c1c(O)cc(O)c(Cc2c(O)cc(O)c(C(=O)CCC)c2O)c1O | 4.3 |

Which value of Ki has been reported for CCCC(=O)C1=C(O)C(C)(C)C(O)=C(Cc2c(O)c(Cc3c(O)c(C)c(O)c(C(=O)CCC)c3O)c(O)c(C(=O)CCC)c2O)C1=O in the records? 2.8

Which value of Ki has been reported for CCCC(=O)c1c(O)cc(O)c(Cc2c(O)c(C)c(O)c(C(=O)CCC)c2O)c1O in the records? 25.8

---

# pIC50 per record follows
# Subject Of Test: β-Glucuronidase from E. coli (Escherichia coli)
# Sequence (P05804 whole entry): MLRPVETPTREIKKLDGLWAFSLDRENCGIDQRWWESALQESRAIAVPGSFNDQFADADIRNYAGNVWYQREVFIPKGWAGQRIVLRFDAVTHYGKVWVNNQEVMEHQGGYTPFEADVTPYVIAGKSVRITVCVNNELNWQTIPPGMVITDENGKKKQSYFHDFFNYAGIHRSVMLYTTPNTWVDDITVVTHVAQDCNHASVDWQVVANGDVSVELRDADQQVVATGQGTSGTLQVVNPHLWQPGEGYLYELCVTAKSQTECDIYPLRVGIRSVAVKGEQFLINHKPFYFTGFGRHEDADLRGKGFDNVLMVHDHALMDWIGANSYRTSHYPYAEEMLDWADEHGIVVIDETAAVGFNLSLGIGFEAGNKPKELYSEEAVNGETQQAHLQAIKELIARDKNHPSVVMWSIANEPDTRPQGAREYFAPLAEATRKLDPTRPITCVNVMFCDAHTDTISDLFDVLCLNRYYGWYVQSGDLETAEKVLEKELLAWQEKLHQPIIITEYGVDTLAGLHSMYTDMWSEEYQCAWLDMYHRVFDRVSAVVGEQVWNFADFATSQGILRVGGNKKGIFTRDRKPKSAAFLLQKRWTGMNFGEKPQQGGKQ
# Experiment Description: β-Glucuronidase inhibitory activity assay with PNPG substrate
Please express pIC50 as -log10 of the molar concentration.

| Molecule | pIC50 |
| --- | --- |
| CCC(=O)c1c(O)cc(O)c(CC2=C(O)C(C)(C)C(O)=C(C(C)=O)C2=O)c1O [Compound 16, norflavaspidic acid AP] | 4.19 |
| CCCC(=O)c1c(O)c(CC2=C(O)C(C)(C)C(O)=C(C(C)=O)C2=O)c(O)c(Cc2c(O)c(CC3=C(O)C(C)(C)C(O)=C(C(C)=O)C3=O)c(O)c(C(=O)CCC)c2O)c1O [Compound 30, dryocrassin ABBA] | 4.02 |

Which value of pIC50 has been reported for CCCC(=O)c1c(O)cc(O)c(Cc2c(O)c(CC3=C(O)C(C)(C)C(O)=C(C(C)=O)C3=O)c(O)c(C(=O)CCC)c2O)c1O [Compound 26, nortrisflavaspidic acid ABB] in the records? 5.10

Which value of pIC50 has been reported for CCCC(=O)C1=C(O)C(C)(C)C(O)=C(Cc2c(O)c(Cc3c(O)c(C)c(O)c(C(=O)CCC)c3O)c(O)c(C(=O)CCC)c2O)C1=O [Compound 28, trisflavaspidic acid BBB] in the records? 5.25
